assayed.target: AAK1 (Homo sapiens, UniProt Q2M2I8)
Construct: to maximize the representation of endogenous proteins; endogenous in cells
Sequence (Q2M2I8 whole entry): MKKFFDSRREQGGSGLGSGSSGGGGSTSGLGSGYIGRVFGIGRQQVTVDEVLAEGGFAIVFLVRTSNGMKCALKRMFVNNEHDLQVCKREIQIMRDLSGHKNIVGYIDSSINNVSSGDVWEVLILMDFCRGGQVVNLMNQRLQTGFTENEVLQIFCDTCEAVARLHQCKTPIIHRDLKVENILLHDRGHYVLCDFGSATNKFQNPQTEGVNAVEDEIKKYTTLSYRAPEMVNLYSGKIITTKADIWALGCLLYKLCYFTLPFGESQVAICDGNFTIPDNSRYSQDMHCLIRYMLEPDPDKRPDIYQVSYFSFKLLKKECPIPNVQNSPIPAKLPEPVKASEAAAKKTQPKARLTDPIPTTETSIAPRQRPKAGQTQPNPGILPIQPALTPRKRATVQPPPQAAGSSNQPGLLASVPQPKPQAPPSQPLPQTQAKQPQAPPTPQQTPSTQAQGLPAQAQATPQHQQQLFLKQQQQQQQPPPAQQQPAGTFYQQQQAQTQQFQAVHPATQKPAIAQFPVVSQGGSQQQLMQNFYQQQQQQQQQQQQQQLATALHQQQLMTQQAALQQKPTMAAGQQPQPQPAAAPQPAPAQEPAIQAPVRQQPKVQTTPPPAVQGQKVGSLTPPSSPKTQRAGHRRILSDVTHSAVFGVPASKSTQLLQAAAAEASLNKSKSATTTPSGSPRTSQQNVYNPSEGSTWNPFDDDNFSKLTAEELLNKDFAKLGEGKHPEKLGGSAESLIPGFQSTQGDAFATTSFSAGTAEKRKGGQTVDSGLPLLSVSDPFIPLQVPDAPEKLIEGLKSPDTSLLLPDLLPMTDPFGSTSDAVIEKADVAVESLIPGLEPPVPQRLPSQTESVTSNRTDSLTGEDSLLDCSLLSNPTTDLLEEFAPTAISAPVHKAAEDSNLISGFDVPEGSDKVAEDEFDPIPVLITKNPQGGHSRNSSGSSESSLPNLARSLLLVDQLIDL
procedure.details: Kinobeads two-dose competition binding: AAK1;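 note: kinobeads competition pulldown from cell lysate, compound preincubated 45 min at 4 °C, bead-bound protein measured by label-free mass spectrometry against DMSO vehicle control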
experimental.setup: sheet "Kinobeads Drugmatrix - all"; unit inferred; same values below 1000 recur in sheet "nanomolar"; read-out: Kinobeads Drugmatrix - all: apparent Kd, AAK1
measured.endpoint: potency estimated from few doses

**Q:** So what potency estimated from few doses did NC(CNC(=O)c1cc(Br)c(-c2ccnc3[nH]ccc23)s1)c1ccccc1 (stereo not drawn) [GSK1322949A] get with AAK1 (Homo sapiens, UniProt Q2M2I8)?
**A:** > 1000 nM

**Q:** Request body: readout potency estimated from few doses, system AAK1 (Homo sapiens, UniProt Q2M2I8), query `CN(C)C(=O)/C(C#N)=C/c1ccc(-c2nc3cnc4[nH]ccc4c3n2C2CCCCC2)o1` . Return the value.
**A:** > 1000 nM

**Q:** Please tell me: potency estimated from few doses of COc1ccc(CNC(=O)NC2CCN(c3ccnc(Nc4cc(OC)c(OC)c(OC)c4)n3)C2)cc1 (stereo not drawn) [GSK1379748A] , system AAK1 (Homo sapiens, UniProt Q2M2I8)?
**A:** > 1000 nM
